- Measured target: GRASP, Q7Z6J2
- Sequence (Q7Z6J2 96-193): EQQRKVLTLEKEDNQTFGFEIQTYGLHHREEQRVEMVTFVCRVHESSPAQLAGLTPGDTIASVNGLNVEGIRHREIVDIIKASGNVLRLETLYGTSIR
- Assay explanation: holdup assay
- Parameters: key: below the threshold = too weak to quantify, mostly under pKd 3.1 to 4
- Experimental setup: plain residues with an end cap or a label only (N-terminal biotin on a linker: ttds)
Assay metric: pKd

Task: Recall and state the measured pKd for RTRQRNETQV [HPV51-E6, P26554] .
Output: below the threshold

Task: Recall and state the measured pKd for QFQYAKESYI [TAGAP, Q8N103] .
Output: below the threshold

Task: Recall and state the measured pKd for GGPKEEESPV [SLC16A1, P53985] .
Output: below the threshold

Task: Recall and state the measured pKd for DPLTPSRSQL [DGKK, Q5KSL6] .
Output: 4.17

Where do the numbers come from? From paper PMC9482650.
